- experiment summary: yeast display, Sf9 membrane polyspecificity reagent, FACS + sequencing; frameworks hold sequencing errors
outcome measure: polyreactivity (PSR sort gate)

QVQLVESGGGVVQAGGSLRLICAASGSTFHSYVMGWYRQAPWKERELVAAITSRGGSTNYADSVKGRFTISRDNAKNTVYLQLNSQKPEDTAVYCCAADGYLGWSYCRYDYWGQGTQVTVSS: low polyreactivity
QVHLVESGGGLFQAGGSLRISCAASGRIFIGNAMGWYRPAPGKERELVAAISKRGGSTYYADSVKGRFTISRDYAKNTVYLQMNSLKPEDTAVYYCNKESLYREFDYWGQGTQVTVSS: low polyreactivity

* * *

- experiment summary: yeast display, Sf9 membrane polyspecificity reagent, FACS + sequencing; frameworks hold sequencing errors
outcome measure: polyreactivity (PSR sort gate)

Please review the following examples before continuing.
QVQLVDSGGGLVQAGGSLRLICAASGITFYYYAMGWYRQAPGKERELVAAISSRGGSTYYADSVKGRFTISRDNAKNTVYLQMNSLKPEDTAVYYWAALYGVSEEDDYWGQGTQVTVSS: high polyreactivity
QVQLVESGGGLVQAGCSLRLSCAASGFTFGDNAMGWYRQAPGKDRELDARITGDGSTYYADSVKGRFTISRDNAKNTVYLQTNSLKPEDTAVYYCAADYSPRYTQIEYGYWGQGTQVTVSS: low polyreactivity
QVQLVESGGGLVQAGGSLRLSCAASGYTFKRYAMGWYRQAPGKERELVAAISQSGTNTYYADSVKGRFTISRDNAKNTVYLQMNSLKPEDTAVYYCAAKPPRRYQLMDYWGQGTQVTVSS: high polyreactivity
QVQRVESGGRLVPPGGSLRLSCAASGRIFYTNAMGCYRQAPGKERELVARITGAGNTYYADSVKGRFTISRDNAKNTVYLQLNSLKPEDTAVYYCTADLYWRGDYWGQGTQVTVSS: high polyreactivity
QVQLVESGGGLVQAGGSLRLSCAASGRTFGGYTIGWSRQAPGKERELVAAIRWSGGRTYYADSVKGRFTISRDNAKNTVYLQMNSLKPEDTAVYYCNARYVFPYYWGQGTQVTVSS: high polyreactivity
QVQLVESGGGLVQAGGSLRLSCAASGRTLRKYAMGWYRQAPGKERELVAAITTSGGSTYYADSVKGRFTISRDNAKNTVYLQMNSLKPDDTAVYYCNAARYYAYIGDYWGQGTQVTVSS: high polyreactivity
QVQLVESGRGLVQAGGSLRLSCPASGRTFSTNAMGWYRQAPGKEREFVAVISSSSGSTYYADSVKGRFTISRDNAKNTVYLQMNSLKPEDTAVYYCAAGYRYRVSYSVYEFYYWGQGTQVTVSS: high polyreactivity
QVQLVESGGGLDQAGGSLRLSCAASGNIFYTNAMGWYRQEPGKAREFVAAISGSGGRTYYADSVKGRFTMSRDNAKNTFYLQMNSLKPEDTEVYYCNAVRRDYYDRNYGYWGQGTQVSVSS: low polyreactivity
QVQLVESGGGLVQAGGSLRLSCAASGRTFGLYAMGWYRQAPGKERELVAAMSYSGGSTYYADSVQGRFTISRDNAKNTVYLQMNSLKPEDTAVYYCAAVYYYASRTSKQPYYDWGQGTQVTVSS: high polyreactivity
QVQLVESGGGLGQAGGSLRLSCAASGRTLGIYAMGWYRPAPGTERELVAAITNGDSTHYADSVKGRFTISRDNAKNTVYLQMNSLKPEDTAVYYCAAEDHYEGYGGYYWGQGTQVTVSS: low polyreactivity

# input What does the record list as polyreactivity (PSR sort gate) for QVQLVESGGGLVQAGGSLRLSCAASGITFGPYAMGWYRQAPGKERELVAAITWGGGSTYYADSVKGRFTISRDNAKNTVYLQMNSLKPEDTAVYYCNAEGSTTSRYLPYDYWGQGTQVTVSS ?
# output low polyreactivity

# input What does the record list as polyreactivity (PSR sort gate) for QVQLVESGGGLVQAGGSLRLSCAASGLIFYAYAMGWYRQAPGKERELVAGIWIDDSTYYADSVKGRFTISRDNAKNTVYLQMNSLKPEDTAVYYCNKRVRSYYLYRGDYWGQGTQVTVSS ?
# output low polyreactivity

# input What does the record list as polyreactivity (PSR sort gate) for QVQLVESGGGLVQAGGSLRLSCAASGSIFDGYAMGWYIQAPGKDRELVAAISGSGGITYYADSVKGRFTISRDNAKNTVYLPMNSLKPEDTAVYYCAADYSWYAGYGYWGQGTQVTVSS ?
# output low polyreactivity

# input What does the record list as polyreactivity (PSR sort gate) for QVQLVESGGGLVQAGGSLRLTCAASGRTFDQYAMGWYRQAPGKERDLVAAITSGGSTYYADSVKGRFTISRDNAKNTVYLQMNSLKPEDTAVYYCYTDSSFWGYYIAQVNERDYWGQGTQVTVSS ?
# output low polyreactivity
